Recorded cAMP Rel EC50, nM (1% HSA) values for a group of binders are listed next.
SYSTEM_NAME: T1, human GIP receptor (human) (UniProt P48546)
T1 sequence (looked up): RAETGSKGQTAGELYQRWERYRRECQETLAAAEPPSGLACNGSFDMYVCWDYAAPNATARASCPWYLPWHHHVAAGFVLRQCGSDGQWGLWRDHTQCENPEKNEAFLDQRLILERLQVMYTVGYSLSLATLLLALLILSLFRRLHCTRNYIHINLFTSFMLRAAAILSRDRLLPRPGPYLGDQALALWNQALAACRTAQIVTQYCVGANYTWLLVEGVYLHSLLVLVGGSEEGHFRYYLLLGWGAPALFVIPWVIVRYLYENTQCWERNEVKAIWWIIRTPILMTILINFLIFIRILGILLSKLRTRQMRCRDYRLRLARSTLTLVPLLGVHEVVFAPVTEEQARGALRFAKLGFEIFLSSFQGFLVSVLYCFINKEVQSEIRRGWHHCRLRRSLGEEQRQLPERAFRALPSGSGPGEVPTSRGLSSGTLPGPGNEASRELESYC
MEASUREMENT_DESCRIPTION: cell-based or functional assay
PROPERTY_NAME: cAMP Rel EC50, nM (1% HSA) (nM)

BINDER | OBSERVED
YXQGTFTSDXSQXLDXKAQXAFIEXLIEGGPSSGEPPPSGSEE (Aib, 4Pal, αMeL, Orn, Me4Pal, αMeY; lipidated Lys; C-terminal amide; synthetic construct; SITE 2: note = 2-Aminoisobutyric Acid; SITE 10: note = 3-(4-Pyridyl)-L-alanine; SITE 13: note = alpha-methyl-leucine; SITE 16: note = L-ornithine; SITE 17: note = Lysine is chemically modified through conjugation of the epsilon-amino group of the Lysine side chain with (gamma-Gl)) [Example 1027] | 58.1
YXQGTFTSDFSXXLDKKAQXAFIEWLLEGGHSSGAPPPSGT (synthetic construct; SITE 2: note = 2-Aminoisobutyric Acid; SITE 12: note = L-ornithine; SITE 13: note = alpha-methyl-leucine; SITE 17: note = Lysine is chemically modified through conjugation of the epsilon-amino group of the Lysine side chain with (2-[2-(2-Amino-ethoxy)-ethoxy]-acetyl)-(gamma-Glu)) [Example 171] | 27.1
YXQGTXTSDYXSXLDXKAQXXFIEXLLEGGPSSGEPPPE (synthetic construct; SITE 2: note = 2-Aminoisobutyric Acid; SITE 6: note = alpha-methyl-L-phenylalanine; SITE 11: note = alpha-methyl-L-serine; SITE 13: note = alpha-methyl-leucine; SITE 16: note = L-ornithine; SITE 17: note = Lysine is chemically modified through conjugation of the epsilon-amino gr) [Example 389] | 18.3
YXQGTFTSDFSXXLDKKAQXAFIEYLLAGGPSSGEPPPEGS (synthetic construct; SITE 2: note = 2-Aminoisobutyric Acid; SITE 12: note = L-ornithine; SITE 13: note = alpha-methyl-leucine; SITE 17: note = Lysine is chemically modified through conjugation of the epsilon-amino group of the Lysine side chain with (2-[2-(2-Amino-ethoxy)-ethoxy]-acetyl)-(gamma-Glu)) [Example 152] | 23.2
YXQGTFTSDFSXXLDKKAQXAFIEYLLEAGHSSGAPPPSGE (acylation; synthetic construct; SITE 2: note = 2-Aminoisobutyric Acid; SITE 12: note = L-ornithine; SITE 13: note = alpha-methyl-leucine; SITE 17: note = Lysine is chemically modified through conjugation of the epsilon-amino group of the Lysine side chain with (2-[2-(2-Amino-ethoxy)-ethoxy]-acetyl)-(gamma-Glu)) [Example 207] | 15.2
YXQGTFTSDXSQXLDKKAQXAFIEYLIEAGPSSGAPPPSGSE (Aib, 4Pal, αMeL, Me4Pal; K acylated AEEA-(γGlu)2-C18 diacid; amide; synthetic construct; SITE 2: note = 2-Aminoisobutyric Acid; SITE 10: note = 3-(4-Pyridyl)-L-alanine; SITE 13: note = alpha-methyl-leucine; SITE 17: note = Lysine is chemically modified through conjugation of the epsilon-amino group of the Lysine side chain with (2-[2-(2-Amino-ethoxy)-ethoxy]-acetyl)) [Example 1024] | 32.5

Origin of measurements: patent US20240270821A1
